Origin of the recorded values: patent US20140113348A1

# systemName: meditope-enabled trastuzumab Fab fragment
# Sequence (chain, as listed by the source limits assumed, chain 1 of 2): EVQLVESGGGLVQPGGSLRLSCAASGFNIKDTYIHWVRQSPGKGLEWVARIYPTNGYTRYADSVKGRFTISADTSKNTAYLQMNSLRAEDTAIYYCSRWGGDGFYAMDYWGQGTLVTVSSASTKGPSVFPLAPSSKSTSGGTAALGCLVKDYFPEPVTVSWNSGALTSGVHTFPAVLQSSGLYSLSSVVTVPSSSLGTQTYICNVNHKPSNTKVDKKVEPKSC
# Sequence (chain, as listed by the source limits assumed, chain 2 of 2): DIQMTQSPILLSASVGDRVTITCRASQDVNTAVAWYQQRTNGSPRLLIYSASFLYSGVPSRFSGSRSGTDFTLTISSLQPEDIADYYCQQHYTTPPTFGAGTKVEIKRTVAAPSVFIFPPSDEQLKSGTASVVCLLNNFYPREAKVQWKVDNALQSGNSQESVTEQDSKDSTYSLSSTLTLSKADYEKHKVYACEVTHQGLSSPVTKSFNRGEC
# assayRemarks: SPR; meditope alone on the Fab fragment, not IgG
valueType: pKd
Would you please state pKd, meaning minus log10 of the concentration in mol/L, as a bare number?

The binder listed as CQFDLSTRRLKC (modifications not checked) [cQFD meditope (cyclic …)] has a reported pKd of 6.00
